Experimental target: T1, human chemokine (C-C motif) receptor 8 (CCR8) (human, UniProt P51685 1-355)
T1 construct: On human peripheral blood lymphocytes / PBMC (native) or on human CCR8 GFP-transfected Ba/F3 cells; also called hCCR8; human CCR8
T1 sequence (P51685 whole entry): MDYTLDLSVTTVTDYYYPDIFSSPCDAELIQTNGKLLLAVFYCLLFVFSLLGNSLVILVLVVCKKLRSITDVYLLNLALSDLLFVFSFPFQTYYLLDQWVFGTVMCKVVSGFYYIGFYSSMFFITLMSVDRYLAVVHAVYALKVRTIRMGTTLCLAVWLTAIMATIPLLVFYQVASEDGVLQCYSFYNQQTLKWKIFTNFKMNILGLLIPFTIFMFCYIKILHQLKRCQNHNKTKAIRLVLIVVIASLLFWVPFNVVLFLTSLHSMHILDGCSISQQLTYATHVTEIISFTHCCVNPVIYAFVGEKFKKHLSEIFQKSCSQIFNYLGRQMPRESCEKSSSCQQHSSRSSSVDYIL
Assay name: flow cytometry blocking, PBMC CCR8+ CD4+ cells; competitor PE-AB6 (its MFI is read)
Measurement type: % Blocking (%)

Binder: AB12 (antibody, V domains shown, Hybridoma monoclonal; also called antibody 12; clone 12) VH: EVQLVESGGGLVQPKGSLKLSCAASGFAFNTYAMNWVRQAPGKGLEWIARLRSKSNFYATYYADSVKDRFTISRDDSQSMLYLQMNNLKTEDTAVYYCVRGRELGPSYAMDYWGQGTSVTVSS VL: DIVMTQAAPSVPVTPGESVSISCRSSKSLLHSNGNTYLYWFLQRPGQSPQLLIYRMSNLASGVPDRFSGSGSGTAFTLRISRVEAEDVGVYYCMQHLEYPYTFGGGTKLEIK
Result number: -24.1
--
Binder: AB10 (antibody, V domains shown, Hybridoma monoclonal; also called antibody 10; clone 10) VH: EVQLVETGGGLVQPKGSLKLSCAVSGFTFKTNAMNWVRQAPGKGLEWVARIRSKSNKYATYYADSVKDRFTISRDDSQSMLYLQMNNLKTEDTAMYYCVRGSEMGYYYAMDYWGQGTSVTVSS VL: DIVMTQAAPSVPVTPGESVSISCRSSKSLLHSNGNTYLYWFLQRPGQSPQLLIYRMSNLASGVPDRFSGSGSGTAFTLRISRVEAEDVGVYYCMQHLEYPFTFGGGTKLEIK
Result number: -26.3
--
Binder: AB5 (antibody, V domains shown, Hybridoma monoclonal; also called antibody 5; clone 5) VH: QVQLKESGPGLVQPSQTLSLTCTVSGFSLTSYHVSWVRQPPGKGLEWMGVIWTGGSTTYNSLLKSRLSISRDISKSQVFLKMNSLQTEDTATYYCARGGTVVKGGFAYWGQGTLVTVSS VL: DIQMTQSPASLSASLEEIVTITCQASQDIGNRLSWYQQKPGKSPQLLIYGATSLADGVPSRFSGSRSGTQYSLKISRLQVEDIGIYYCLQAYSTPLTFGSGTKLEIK
Result number: 35.7
--
Binder: AB2 (antibody, V domains shown, Hybridoma monoclonal; also called antibody 2; clone 2) VH: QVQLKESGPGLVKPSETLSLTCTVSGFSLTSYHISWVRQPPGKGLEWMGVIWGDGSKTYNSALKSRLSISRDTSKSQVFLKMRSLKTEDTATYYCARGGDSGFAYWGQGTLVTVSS VL: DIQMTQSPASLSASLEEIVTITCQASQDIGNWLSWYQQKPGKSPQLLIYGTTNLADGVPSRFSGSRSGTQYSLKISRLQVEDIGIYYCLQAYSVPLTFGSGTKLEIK
Result number: 45.9
--
Binder: AB4 (antibody, V domains shown, Hybridoma monoclonal; also called antibody 4; clone 4) VH: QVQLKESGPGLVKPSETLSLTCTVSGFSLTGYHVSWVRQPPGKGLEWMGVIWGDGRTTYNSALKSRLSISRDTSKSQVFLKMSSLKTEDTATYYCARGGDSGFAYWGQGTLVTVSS VL: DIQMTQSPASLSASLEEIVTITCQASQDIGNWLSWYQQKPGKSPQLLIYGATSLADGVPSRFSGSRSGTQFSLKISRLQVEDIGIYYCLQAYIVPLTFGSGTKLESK
Result number: 47.3
--
Binder: AB8 (antibody, V domains shown, Hybridoma monoclonal; also called antibody 8; clone 8) VH: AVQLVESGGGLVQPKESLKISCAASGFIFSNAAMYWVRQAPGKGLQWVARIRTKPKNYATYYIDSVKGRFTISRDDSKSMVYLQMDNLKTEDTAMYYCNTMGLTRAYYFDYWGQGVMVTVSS VL: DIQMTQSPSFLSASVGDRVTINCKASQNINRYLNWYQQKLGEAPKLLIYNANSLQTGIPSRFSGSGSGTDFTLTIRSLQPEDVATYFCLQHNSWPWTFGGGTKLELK
Result number: -20.4
--
Binder: AB1 (antibody, V domains shown, Hybridoma monoclonal (mice or rats immunised); Used purified and PE-conjugated; also called antibody 1; clone 1) VH: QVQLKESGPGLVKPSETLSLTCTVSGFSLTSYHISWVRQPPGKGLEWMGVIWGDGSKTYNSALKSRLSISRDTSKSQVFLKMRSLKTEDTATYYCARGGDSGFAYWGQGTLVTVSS VL: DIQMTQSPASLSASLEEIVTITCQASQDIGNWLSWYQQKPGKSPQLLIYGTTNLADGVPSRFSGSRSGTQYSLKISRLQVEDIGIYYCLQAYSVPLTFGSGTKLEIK
Result number: 40.2
